Experimental Target: BACE-1 (β-secretase, beta-site APP cleaving enzyme 1) (Homo sapiens)
Construct: commercial recombinant enzyme (R&D Systems 931-AS)
Sequence (P56817 46-457 limits assumed): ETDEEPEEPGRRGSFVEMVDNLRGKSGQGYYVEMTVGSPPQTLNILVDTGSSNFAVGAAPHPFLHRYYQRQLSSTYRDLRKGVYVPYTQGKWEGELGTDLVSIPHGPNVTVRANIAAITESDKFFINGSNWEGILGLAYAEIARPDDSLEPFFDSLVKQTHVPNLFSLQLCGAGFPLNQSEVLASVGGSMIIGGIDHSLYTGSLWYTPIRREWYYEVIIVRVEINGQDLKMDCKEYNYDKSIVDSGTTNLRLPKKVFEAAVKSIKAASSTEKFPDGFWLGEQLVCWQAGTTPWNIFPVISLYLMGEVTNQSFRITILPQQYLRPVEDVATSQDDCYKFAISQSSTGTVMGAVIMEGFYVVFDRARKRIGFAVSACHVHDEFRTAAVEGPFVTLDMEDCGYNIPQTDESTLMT
Test Summary: fluorogenic Mca/Dnp peptide cleavage, 5-point dose response
Listing of entries alongside the reported IC50.
Quantity: IC50 (µM)

CCn1c(=O)c(N2CCCC(C(=O)NC3CCN(Cc4ccccc4)CC3)C2)nc2ccccc21 (stereo not shown): 63
CCOc1cccc(C2CC(c3ccc(C)cc3)=NC3(CCN(C(C)=O)CC3)N2)c1O (stereo not shown): 150
COc1cccc(N2CC(C(=O)Nc3ccccc3CN(C)C3CCCCC3)CC2=O)c1 (stereo not shown): 60
Cn1c(=O)c(N2CCCC(C(=O)NC3CCN(Cc4ccccc4)CC3)C2)nc2ccccc21 (stereo not shown): 55
